Reference source: ChEMBL document CHEMBL1949501

Measured Ratio IC50 accompanies every entry in the list below.
Target: COX-1/COX-2 (Homo sapiens) (UniProt P35354+P23219)
Assay: Selectivity ratio of IC50 for COX-1-mediated TXB2 production in human platelets to IC50 for COX-2-mediated 6-keto-PGF1alpha production in IL-1beta-induced HUVEC

smiles_text	Ratio IC50
O=C(O)Cc1c(C(=O)c2cc3c(cn2)CCCC3)[nH]c2cc(Cl)ccc12	> 521
COc1ccc2c(CC(=O)O)c(C(=O)c3cc(C)ccn3)[nH]c2c1	> 78.1
CCc1cc(C(=O)c2[nH]c3cc(Cl)ccc3c2CC(=O)O)ncc1Cl	> 326
